These measurements were taken from patent US20080200475A1.

assay system: Human P2Y12 (Homo sapiens, UniProt Q9H244)
Construct: expressed in transfected cells; host or cells: HEK cells (membrane preparation)
Sequence (Q9H244 whole entry): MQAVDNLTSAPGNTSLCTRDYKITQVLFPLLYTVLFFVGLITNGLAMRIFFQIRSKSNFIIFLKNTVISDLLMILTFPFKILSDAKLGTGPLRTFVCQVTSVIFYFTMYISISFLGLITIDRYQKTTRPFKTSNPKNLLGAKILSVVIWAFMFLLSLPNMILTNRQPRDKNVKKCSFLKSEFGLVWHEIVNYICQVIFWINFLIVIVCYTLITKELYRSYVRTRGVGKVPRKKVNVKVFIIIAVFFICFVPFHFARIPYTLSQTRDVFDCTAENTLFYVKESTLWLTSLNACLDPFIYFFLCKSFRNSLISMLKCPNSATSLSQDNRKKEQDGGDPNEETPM
assay remarks: [^33P]-2MeS-ADP Binding to Recombinant Human P2Y12 Membranes (Assay 3)
test conditions: membranes of HEK cells transfected with P2Y12; competition with ^33P 2MeS-ADP; multiple lines = multiple runs
assay readout: IC50 (µM)
Respond with the bare value in µM.

INSERT INTO measurements (smiles, assay_readout, observed_result) VALUES
  ('CCc1cc2c(N3CCN(C(=O)c4ccc(-c5ccccc5)cc4)CC3)nc(NC(=O)CCO)nc2s1', 'IC50', 0.067),
  ('CCc1cc2c(N3CCN(C(=O)c4ccc(-c5ccccc5)cc4)CC3)nc(NC(C)=O)nc2s1', 'IC50', 0.159),
  ('CCc1cc2c(N3CCN(C(=O)c4ccc(-c5ccccc5)cc4)CC3)nc(NC(=O)NCC(=O)O)nc2s1', 'IC50', 0.0043),
  ('CCc1cc2c(N3CCN(C(=O)c4ccc(-c5ccccc5)cc4)CC3)nc(NC(=O)CCC(=O)O)nc2s1', 'IC50', 0.013),
  ('CCc1cc2c(N3CCN(C(=O)c4ccc(-c5ccccc5)cc4)CC3)nc(NC(=O)CN)nc2s1', 'IC50', 0.156);

The record that follows has no IC50 shown yet.
Given `CCc1cc2c(N3CCN(C(=O)c4ccc(-c5ccccc5)cc4)CC3)nc(NC(=O)[C@H](COC(C)(C)C)NC(=O)OCc3ccccc3)nc2s1` , respond with its IC50.
2.7
